Data provenance: patent US12540141B2

# system: SARS-CoV-2 3CL-protease (Severe acute respiratory syndrome coronavirus 2, UniProt P0DTD1)
# assay-comment: SARS-CoV-2 3C-Like (3CL) Protease Fluorescence Assay (FRET)
# Format: biochemical
# condition-parameters: SARS-CoV-2 3CL-protease 10 nM, 30 min preincubation at RT, substrate 40 μM
This listing pairs compounds with measured IC50.
observed-property: IC50

INSERT INTO measurements (compound, system, observed_property, result) VALUES
  ('COc1cccc2[nH]c(C(=O)N(C)[C@@H](COC(C)(C)C)C(=O)N3C[C@]4(C[C@H]3C#N)C(=O)Nc3ccccc34)cc12 [Example 370]', 'SARS-CoV-2 3CL-protease (Severe acute respiratory syndrome coronavirus 2, UniProt P0DTD1)', 'IC50', '< 100 nM'),
  ('CC(C)C[C@@H](C(=O)N1C[C@]2(C[C@H]1C#N)C(=O)Nc1ccccc12)N(C)C(=O)c1cn(-c2ccccn2)nn1 [Example 267]', 'SARS-CoV-2 3CL-protease (Severe acute respiratory syndrome coronavirus 2, UniProt P0DTD1)', 'IC50', '< 100 nM'),
  ('CC(C)C[C@@H](C(=O)N1C[C@]2(C[C@H]1C#N)C(=O)Nc1ccccc12)N(C)C(=O)c1cc(F)c2nc(C(F)F)cn2c1 [Example 341]', 'SARS-CoV-2 3CL-protease (Severe acute respiratory syndrome coronavirus 2, UniProt P0DTD1)', 'IC50', '100 to 1000 nM'),
  ('CC(C)C[C@@H](C(=O)N1C[C@]2(C[C@H]1C#N)C(=O)Nc1ccccc12)N(C)C(=O)c1cc2ccccc2cn1 [Example 212]', 'SARS-CoV-2 3CL-protease (Severe acute respiratory syndrome coronavirus 2, UniProt P0DTD1)', 'IC50', '< 100 nM'),
  ('CC(C)C[C@@H](C(=O)N1C[C@]2(C[C@H]1C#N)C(=O)Nc1ccc(-c3ccncc3)cc12)N(C)C(=O)c1cc2c(F)cc(F)cc2[nH]1 [Example 510]', 'SARS-CoV-2 3CL-protease (Severe acute respiratory syndrome coronavirus 2, UniProt P0DTD1)', 'IC50', '< 100 nM'),
  ('CC(C)C[C@@H](C(=O)N1C[C@]2(C[C@H]1C#N)C(=O)Nc1ccccc12)N(C)C(=O)c1ccc2c(c1)OC(F)(F)O2 [Example 190]', 'SARS-CoV-2 3CL-protease (Severe acute respiratory syndrome coronavirus 2, UniProt P0DTD1)', 'IC50', '100 to 1000 nM');

----------
Here we list compounds with their recorded pIC50 when tested on SARS-CoV-2 3CL-protease (Severe acute respiratory syndrome coronavirus 2, UniProt P0DTD1).
pIC50: −log10 of the molar value.
observed-property: pIC50

INSERT INTO measurements (compound, result) VALUES
  ('CC(C)C[C@@H](C(=O)N1C[C@]2(C[C@H]1C#N)C(=O)Nc1ccccc12)N(C)C(=O)c1cccc(-c2ccc(C#N)cc2)c1 [Example 265]', '6.00 to 7.00'),
  ('[2H]C([2H])([2H])N(C(=O)c1nc(-c2ccccc2)c[nH]1)[C@@H](CC(C)(C)C)C(=O)N1C[C@]2(C[C@H]1C#N)C(=O)Nc1ccccc12 [Example 376]', '> 7.00'),
  ('CC(C)C[C@@H](C(=O)N1C[C@]2(C[C@H]1C#N)C(=O)Nc1ccccc12)N(C(=O)C(F)(F)F)C(C)C [Example 432]', '< 6.00'),
  ('CC(C)C[C@@H](C(=O)N1C[C@]2(C[C@H]1C#N)C(=O)Nc1ccccc12)N(C)C(=O)c1cc(Cl)cc(Cl)c1 [Example 172]', '> 7.00'),
  ('CC(C)C[C@@H](C(=O)N1C[C@]2(C[C@H]1C#N)C(=O)Nc1ccccc12)N(C)C(=O)c1ccc(Cl)cc1Cl [Example 168]', '> 7.00'),
  ('CC(C)(C)C[C@H](NC(=O)Nc1ccc(F)cc1)C(=O)N1C[C@]2(C[C@H]1C#N)C(=O)Nc1ccccc12 [Example 441]', '6.00 to 7.00');

----------
Here we list compounds with their recorded IC50 when tested on SARS-CoV-2 3CL-protease (Severe acute respiratory syndrome coronavirus 2, UniProt P0DTD1).
observed-property: IC50

INSERT INTO results (cpd_smiles, observed_property, result) VALUES
  ('Cc1c(C(=O)N[C@@H](CC2CC2)C(=O)N2C[C@]3(C[C@H]2C#N)C(=O)Nc2ccc(F)cc23)sc2cccc(F)c12', 'IC50', '< 0.1 µM'),
  ('[2H]C([2H])([2H])N(C(=O)c1cn(C2CCC2)nn1)[C@@H](CC(C)(C)C)C(=O)N1C[C@]2(C[C@H]1C#N)C(=O)Nc1ccccc12', 'IC50', '< 0.1 µM'),
  ('CC(C)C[C@@H](C(=O)N1C[C@]2(C[C@H]1C#N)C(=O)Nc1ccccc12)N(C(=O)OCc1ccccc1)C(C)C', 'IC50', '> 1 µM'),
  ('CC(C)C[C@@H](C(=O)N1C[C@]2(C[C@H]1C#N)C(=O)Nc1ccccc12)N(C)C(=O)c1nc2cc(F)ccc2[nH]1', 'IC50', '< 0.1 µM'),
  ('Cc1ccc2c(c1)[C@@]1(C[C@@H](C#N)N(C(=O)[C@H](CC(C)C)N(C)C(=O)OCc3ccccc3)C1)C(=O)N2', 'IC50', '< 0.1 µM'),
  ('CC(C)C[C@@H](C(=O)N1C[C@]2(C[C@H]1C#N)C(=O)Nc1ccccc12)N(C)C(=O)c1ccnc2ccc(F)cc12', 'IC50', '< 0.1 µM');

----------
Here we list molecules with their recorded IC50 when tested on SARS-CoV-2 3CL-protease (Severe acute respiratory syndrome coronavirus 2, UniProt P0DTD1).
observed-property: IC50

INSERT INTO results (molecule, result) VALUES
  ('CC(C)C[C@@H](C(=O)N1C[C@]2(C[C@H]1C(=O)C(=O)NC1CCCCC1)C(=O)Nc1ccccc12)N(C)C(=O)c1cc2c(F)cc(F)cc2[nH]1 [Example 155]', '> 1000 nM'),
  ('CN(C(=O)c1cn(C2CC2)nn1)[C@@H](Cc1ccccc1)C(=O)N1C[C@]2(C[C@H]1C#N)C(=O)Nc1ccccc12 [Example 359]', '< 100 nM'),
  ('COc1ccc2[nH]c(C(=O)N(C)[C@@H](CC(C)C)C(=O)N3C[C@]4(C[C@H]3C#N)C(=O)Nc3ccccc34)nc2c1 [Example 249]', '< 100 nM'),
  ('N#C[C@@H]1C[C@@]2(CN1C(=O)[C@H](CN1CCCC1=O)NC(=O)OCc1ccccc1)C(=O)Nc1ccccc12 [Example 548]', '100 to 1000 nM'),
  ('CC(C)C[C@@H](C(=O)N1C[C@]2(C[C@H]1C#N)C(=O)Nc1ccccc12)N(C)C(=O)[C@@H](c1cn(C)nn1)C(C)C [Example 350]', '< 100 nM'),
  ('CN(C(=O)c1cc2cnccc2[nH]1)[C@@H](CC1CC1)C(=O)N1C[C@]2(C[C@H]1C#N)C(=O)Nc1ccc(Cl)cc12 [Example 457]', '< 100 nM'),
  ('CN(C(=O)CCNc1nccs1)[C@@H](CC(C)(C)F)C(=O)N1C[C@]2(C[C@H]1C#N)C(=O)Nc1ccccc12 [Example 547]', '< 100 nM'),
  ('CC(C)C[C@@H](C(=O)N1C[C@]2(C[C@H]1C#N)C(=O)Nc1ccccc12)N(C)C(=O)c1ccc(Cl)c(F)c1F [Example 175]', '< 100 nM'),
  ('CC(C)C[C@@H](C(=O)N1C[C@]2(C[C@H]1C#N)C(=O)Nc1ccccc12)N(C)C(=O)CCN [Example 367]', '< 100 nM'),
  ('CC(C)C[C@@H](C(=O)N1C[C@]2(C[C@H]1C#N)C(=O)Nc1ccccc12)N(C)C(=O)c1cc(OC(F)(F)F)c2ncccc2c1 [Example 322]', '< 100 nM'),
  ('CC(C)C[C@@H](C(=O)N1C[C@]2(C[C@H]1C#N)C(=O)Nc1ccccc12)N(C)C(=O)c1ccc2cc(F)ccc2c1 [Example 222]', '100 to 1000 nM'),
  ('CC(C)C[C@@H](C(=O)N1C[C@]2(C[C@H]1C#N)C(=O)Nc1ccccc12)N(C)C(=O)c1cn(-c2ccccc2)nn1 [Example 338]', '< 100 nM'),
  ('[2H]C([2H])([2H])N(C(=O)c1cnn(CC(F)(F)F)c1)[C@@H](CC1CC1)C(=O)N1C[C@]2(C[C@H]1C#N)C(=O)Nc1ccccc12 [Example 395]', '< 100 nM'),
  ('CC(C)C[C@@H](C(=O)N1C[C@]2(C[C@H]1C#N)C(=O)Nc1ccccc12)N(C)C(=O)c1ccc(F)c(-c2ccccc2)c1 [Example 272]', '100 to 1000 nM'),
  ('Cc1cc2cc(C(=O)N[C@@H](CC(C)(C)C)C(=O)N3C[C@]4(C[C@H]3C#N)C(=O)Nc3ccccc34)cc(Cl)c2nc1C [Example 147]', '< 100 nM'),
  ('COC(=O)c1ccc2c(c1)[C@@]1(C[C@@H](C#N)N(C(=O)[C@H](CC(C)C)N(C)C(=O)c3cc4c(F)cc(F)cc4[nH]3)C1)C(=O)N2 [Example 501]', '< 100 nM'),
  ('CN(C(=O)OCc1ccccc1)[C@@H](Cc1ccc(OCc2ccccc2)cc1)C(=O)N1C[C@]2(C[C@H]1C#N)C(=O)Nc1ccccc12 [Example 387]', '> 1000 nM'),
  ('CC(C)C[C@@H](C(=O)N1C[C@]2(C[C@H]1C#N)C(=O)Nc1ccccc12)N(C)C(=O)c1cccc(-c2cccc(C#N)c2)c1 [Example 279]', '100 to 1000 nM'),
  ('CN(C(=O)Cc1cccnc1)[C@@H](CC(C)(C)F)C(=O)N1C[C@]2(C[C@H]1C#N)C(=O)Nc1ccc(Cl)cc12 [Example 476]', '< 100 nM'),
  ('CC(C)C[C@@H](C(=O)N1C[C@]2(C[C@H]1C#N)C(=O)Nc1ccccc12)N(C)C(=O)c1cc2cccc(F)c2[nH]1 [Example 325]', '< 100 nM'),
  ('CC(C)C[C@@H](C(=O)N1C[C@]2(C[C@H]1C#N)C(=O)Nc1ccccc12)N(C)C(=O)c1ccn[nH]1 [Example 202]', '100 to 1000 nM'),
  ('N#C[C@@H]1C[C@@]2(CN1C(=O)[C@H](CC1CC1)NC(=O)c1cc3c(F)cc(F)cc3[nH]1)C(=O)Nc1ccc(Cl)cc12 [Example 453]', '< 100 nM');
